- experimental protocol: basal MM1S mitochondrial membrane potential changes, profiling panel, cell-based, JC-1 fluorescence, 24 h, 100 nL compound (AID 1170); also: test concentration not given here
- conditions: higher = more signal
experimental endpoint: z-score
Number only, no unit.

These recorded examples may help you get a feel for the data.
{"columns": ["molecule", "z-score"],
 "data": [
  ["O=C1O[C@H](c2ccccc2)[C@H](c2ccccc2)N2[C@H]1[C@@H](C(=O)Nc1nc3ccccc3s1)[C@]1(C(=O)Nc3ccc(C#CC4(O)CCCCCC4)cc31)[C@H]2c1ccccc1OCCO", -1.5],
  ["CCOc1cc(C(O)C2C=CC3C(=O)N(C)C(=O)C3N2Nc2ccccc2)ccc1O (centres undefined)", -0.536],
  ["CN(C)CCCCNC(=O)[C@@H]1C[C@@H]2C(=O)N[C@@H](Cc3ccccc3)C(=O)N2[C@@H]1c1cccc(OCCO)c1", 0.108],
  ["COC(=O)[C@@]1(Cc2ccc(F)cc2)[C@H]2c3cc(C(=O)N4CCCC4)n(CCN4CNCC4=O)c3C[C@H]2CN1C(=O)c1ccccc1", -1.23]
]}

Record C=CCC(OC(C)=O)[C@@H]1[C@@H](N(Cc2ccc(-c3cccc(C(F)(F)F)c3)o2)C(=O)c2ccc(-c3ccccc3)cc2)c2cc(OCCCO)ccc2N1C(=O)c1ccc2ccccc2n1 (some centres undefined) . Reported z-score: -0.0621

Record `C[N+](C)(C)CCCCCCNC(=O)[C@H]1C[C@H]2C(=O)NCC(=O)N2[C@H]1c1ccc(O)cc1` . Reported z-score: -0.235

Record `C[N+](C)(C)CCCCCCNC(=O)[C@H]1C[C@H]2C(=O)N[C@@H](Cc3ccccc3)C(=O)N2[C@H]1c1ccc(O)cc1` . Reported z-score: -0.79

Record C=C(C)C1CCC(C(O)C2C=CC3C(=O)N(C)C(=O)C3N2N2CCCCC2)CC1 (centres undefined) . Reported z-score: -0.31

Record C=CC1c2cc(O)c(OC)cc2CCN1Cc1cc2c(cc1Br)OCO2 (centres undefined) . Reported z-score: -0.348

Record `COCCOC(=O)N1C(=O)[C@@]2(c3cc(C#CC4=CCCCC4)ccc31)[C@H](c1ccc(O)cc1)N1[C@H](c3ccccc3)[C@H](c3ccccc3)OC(=O)[C@H]1[C@@H]2C(=O)N1CCN(c2ncccn2)CC1` . Reported z-score: -0.587

Record CC(=O)c1ccc(C(O)C2C=CC3C(=O)N(c4ccccc4)C(=O)C3N2Nc2ccc(C#N)cc2)cc1 (centres undefined) . Reported z-score: -0.0349

Record `CCOC(=O)c1ccc(NC(=O)O[C@H]2[C@H](OC(=O)Nc3ccc4c(c3)OCO4)[C@@H](OC(=O)Nc3ccc4c(c3)OCO4)[C@@H](OC)O[C@@H]2CO)cc1` . Reported z-score: -0.979

Record `Cc1ccc(S[C@]2(C(=O)O)CC(=O)N(Cc3ccccc3Cl)[C@@H]2c2ccc(CO)cc2I)cc1` . Reported z-score: -0.589

Record `COCCOC(=O)N1C(=O)[C@@]2(c3cc(C#CCNC(N)=O)ccc31)[C@H](C(=O)N1CCc3cc(OC)c(OC)cc3C1)[C@H]1C(=O)O[C@H](c3ccccc3)[C@H](c3ccccc3)N1[C@@H]2c1ccccc1OCCO` . Reported z-score: -0.98

Just for reference, PubChem BioAssay is where these values come from.
